Tested target: Rac GTPase-activating protein 1 (Homo sapiens) (UniProt Q9H0H5)
Sequence (Q9H0H5 whole entry, looked up): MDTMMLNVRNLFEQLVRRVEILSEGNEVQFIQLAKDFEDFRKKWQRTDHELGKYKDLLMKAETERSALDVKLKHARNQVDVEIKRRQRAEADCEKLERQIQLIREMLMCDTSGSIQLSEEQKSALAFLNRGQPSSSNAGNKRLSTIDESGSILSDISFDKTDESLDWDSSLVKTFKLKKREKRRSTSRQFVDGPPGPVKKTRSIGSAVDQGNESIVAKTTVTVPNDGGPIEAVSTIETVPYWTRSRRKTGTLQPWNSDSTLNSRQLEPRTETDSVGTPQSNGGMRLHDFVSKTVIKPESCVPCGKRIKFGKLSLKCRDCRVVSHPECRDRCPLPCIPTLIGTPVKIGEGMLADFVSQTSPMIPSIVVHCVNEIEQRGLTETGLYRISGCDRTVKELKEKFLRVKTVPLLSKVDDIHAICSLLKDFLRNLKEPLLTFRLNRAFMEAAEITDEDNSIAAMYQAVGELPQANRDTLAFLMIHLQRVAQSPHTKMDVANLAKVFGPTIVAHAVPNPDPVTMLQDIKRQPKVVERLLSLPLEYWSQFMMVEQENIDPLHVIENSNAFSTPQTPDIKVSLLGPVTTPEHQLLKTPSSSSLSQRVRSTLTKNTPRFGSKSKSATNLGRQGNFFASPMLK
Method: blockers of MgcRacGAP-driven Rac1 GTP hydrolysis – biochemical, ADP Hunter fluorescence, primary and confirmatory, confirmation (AID 624330);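 also: fluorescence reports GDP produced by GAP-driven GTP hydrolysis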
Experimental parameters: MgcRacGAP-stimulated Rac1 GTP hydrolysis, at 30 µM, stronger effect = higher value, GST-tagged Rac1 F28L mutant substrate
The campaign covered roughly 340,000 compounds. About 2,100 (0.62%) were called active. Only a sample is shown. Potency and affinity values are given separately.
Attribute measured: inhibition

Entry O=C(CN1CCCC1)Nc1c2c(nc3ccccc13)N(Cc1ccccc1)CC2 : inhibition on Rac GTPase-activating protein 1 (Homo sapiens) (UniProt Q9H0H5) = 3.93% (inactive)

Entry CCCCc1nc2ccccc2c(NC(=O)CN2CCCC2)c1CCC : inhibition on Rac GTPase-activating protein 1 (Homo sapiens) (UniProt Q9H0H5) = 28.9% (inactive)

Entry COc1ccc(OCCCC(=O)NCCc2ccc(OC)c(OC)c2)cc1 : inhibition on Rac GTPase-activating protein 1 (Homo sapiens) (UniProt Q9H0H5) = 5.19% (inactive)

Entry COc1cc(OC)nc(NC(=O)NS(=O)(=O)c2ccc(OC(F)(F)F)cc2)n1 : inhibition on Rac GTPase-activating protein 1 (Homo sapiens) (UniProt Q9H0H5) = 7.78% (inactive)

Entry COCC1CCN(Cc2cn(C)nc2-c2cccc(Cl)c2)C1 (configuration not stated) : inhibition on Rac GTPase-activating protein 1 (Homo sapiens) (UniProt Q9H0H5) = 1.3% (inactive)

Entry COc1ccc(/C=C/C(=O)OC2CCCCC2CN(C)C)cc1 (configuration not stated) : inhibition on Rac GTPase-activating protein 1 (Homo sapiens) (UniProt Q9H0H5) = 1.25% (inactive)

Entry CCOc1ccccc1/C=C(\C#N)C(=O)Nc1cccc(C(=O)O)c1 : inhibition on Rac GTPase-activating protein 1 (Homo sapiens) (UniProt Q9H0H5) = -4.51% (inactive)

* * *

Please respond with reported inhibition for every item in the list.
Tested target: Rac GTPase-activating protein 1 (Homo sapiens) (UniProt Q9H0H5)
Method: blockers of MgcRacGAP-driven Rac1 GTP hydrolysis – biochemical, ADP Hunter fluorescence, primary and confirmatory, confirmation (AID 624330);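 also: fluorescence reports GDP produced by GAP-driven GTP hydrolysis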
Experimental parameters: MgcRacGAP-stimulated Rac1 GTP hydrolysis, at 30 µM, stronger effect = higher value, GST-tagged Rac1 F28L mutant substrate
About 2,100 (0.62%) of roughly 340,000 compounds were called active. Not all results are given here. Measured potencies and affinities stand elsewhere.
All answers are understood in %, so give the number only.

Form field inhibition, entry Cc1cccc(NC(=O)Cn2c(=O)oc3cc(S(=O)(=O)N4CCCC4)ccc32)n1 : 9.63

Form field inhibition, entry Cc1cccn2c(=O)c(C=NCc3ccccc3)c(NCCO)nc12 : 7.69

Form field inhibition, entry CCC1=NN(C(=O)Cc2ccccc2)C(O)(c2ccncc2)C1 (stereo not given) : 5.64

Form field inhibition, entry Cc1cc(C)cc(OCC(=O)OCC(=O)NC2CC2)c1 : -3.46

Form field inhibition, entry CN(CC(=O)Nc1ccc(SC(F)F)cc1)C1CCCCC1 : 9.96

* * *

Tested target: Rac GTPase-activating protein 1 (Homo sapiens) (UniProt Q9H0H5)
Method: blockers of MgcRacGAP-driven Rac1 GTP hydrolysis – biochemical, ADP Hunter fluorescence, primary and confirmatory, confirmation (AID 624330);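 also: fluorescence reports GDP produced by GAP-driven GTP hydrolysis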
Experimental parameters: MgcRacGAP-stimulated Rac1 GTP hydrolysis, at 30 µM, stronger effect = higher value, GST-tagged Rac1 F28L mutant substrate
Hit rate of the full screen: of about 340,000 compounds, about 2,100 (0.62%) were called active. These entries were drawn from the full list. Potency and affinity values are given separately.
Attribute measured: inhibition (%)
All answers are understood in %, so give the number only.

Form field inhibition, entry Cc1ccc(CN2CCN(C(=O)c3cccc4ccccc34)CC2)cc1 : 23.8

Form field inhibition, entry CC1CCN(CC(=O)Nc2ccc(S(=O)(=O)N3CCC(C)CC3)cc2)CC1 : 23

Form field inhibition, entry Cc1cc(NC(=O)CN2CCCCC2)no1 : 22.2

These data points were gathered from PubChem BioAssay AID624330.
